experiment: RiboGreen assay, % encapsulation of mRNA in lipid nanoparticles; assay type: physicochemical; conditions: Table 3, further LNPs; hEPO mRNA LNP, Cationic Lipid:DMG-PEG2000:Cholesterol:DOPE=40:1.5:28.5:30, N/P ratio 4, Process A
quantity-name: Encapsulation Percentage (%)
API: value field is a number in %; no unit string.

Ask | Fill in: Encapsulation Percentage (%) of CCCCCCCCCCC(O)CN(CCCOC(=O)[C@H](Cc1ccccc1)NC(=O)CCCN(CC(O)CCCCCCCCCC)CC(O)CCCCCCCCCC)CC(O)CCCCCCCCCC (stereo partly drawn) is ___
Reply | 66

Ask | Can you handle CCCCCCCCCCC(O)CN(CCCOC(=O)[C@H](CCc1ccccc1)NC(=O)CCCN(CC(O)CCCCCCCCCC)CC(O)CCCCCCCCCC)CC(O)CCCCCCCCCC (stereo partly drawn) next?
Reply | 85

Ask | Next compound up: CCCCCCCCCCC(O)CN(CCCNC(=O)CC(C)(C)CC(=O)NCCCN(CC(O)CCCCCCCCCC)CC(O)CCCCCCCCCC)CC(O)CCCCCCCCCC (stereo not drawn)
Reply | 88

###

Listed here are compounds together with their documented Encapsulation Percentage (%).
experiment: RiboGreen assay, % encapsulation of mRNA in lipid nanoparticles; assay type: physicochemical; conditions: Table 1; hEPO mRNA LNP, Cationic Lipid:DMG-PEG2000:Cholesterol:DOPE=40:1.5:28.5:30, N/P ratio 4, Process A
Just the number please, in %, no unit attached.

>>> reported_value("CCCCCCCCCCC(O)CN(CCCCOC(=O)CN(C)CC(=O)OCCCCN(CC(O)CCCCCCCCCC)CC(O)CCCCCCCCCC)CC(O)CCCCCCCCCC (stereo not shown)")
67
>>> reported_value("CCCCCC/C=C\\COC(=O)CCCCCC(O)CN(CCCOC(=O)CN(C)CC(=O)OCCCN(CC(O)CCCCCC(=O)OC/C=C\\CCCCCC)CC(O)CCCCCC(=O)OC/C=C\\CCCCCC)CC(O)CCCCCC(=O)OC/C=C\\CCCCCC (stereo not shown)")
33
>>> reported_value("CCCCCCCCC(O)CN(CCCOC(=O)CN(C)CC(=O)OCCCN(CC(O)CCCCCCCC)CC(O)CCCCCCCC)CC(O)CCCCCCCC (stereo not shown)")
46

Next item in the queue.
Ask | Any idea what its Encapsulation Percentage (%) is? The compound is CCCCCCCCCCC(O)CN(CCCOC(=O)CCC(C)C(=O)OCCCN(CC(O)CCCCCCCCCC)CC(O)CCCCCCCCCC)CC(O)CCCCCCCCCC (stereo not shown)
Reply | 78
